- Tested on: Plasmodium falciparum
- protocol_text: GSK_TCMDC: Inhibition of Plasmodium falciparum 3D7 in whole erythrocytes, using parasite LDH activity as an index of growth.
- Format: functional, organism-based
- condition_description: Plasmodium falciparum, 3D7

{"compound": "CC(C)(C)C(=O)Nc1c(-c2cc(=O)oc3cc4c(cc23)CCC4)oc2ccccc12", "unit_text": "nM", "XC50": 1260}
{"compound": "CCCC(C)Nc1nc(C)cc(N[C@@H](Cc2ccccc2)C(=O)Nc2ccccc2)n1 (stereo not given in full)", "unit_text": "nM", "XC50": 863}
{"compound": "Cc1cc(NC(=O)c2sc3ccccc3c2O)no1", "unit_text": "nM", "XC50": 809}
{"compound": "O=S(=O)(c1cccc(C(F)(F)F)c1)N1CCC(CO)(Cc2cccc(C(F)(F)F)c2)CC1", "unit_text": "nM", "XC50": 964}
{"compound": "FC(F)(F)c1cc(CNCCCNc2nc3ccncc3[nH]2)ccc1Cl", "unit_text": "nM", "XC50": 1010}
{"compound": "CC1CN(c2ccnc3ccc(Sc4ccc(Oc5ccccc5)cc4)cc23)CC(C)N1 (stereo not given)", "unit_text": "nM", "XC50": 785}
{"compound": "COc1ccc2c(CCNc3nc(SC)ncc3C(=O)NCCc3ccc(F)cc3)c[nH]c2c1", "unit_text": "nM", "XC50": 762}
{"compound": "CNC(=O)CC(=O)NCCc1ccc(Cl)cc1", "unit_text": "nM", "XC50": 811}
{"compound": "CCc1c(C)c(C#N)c2nc3ccccc3n2c1NCc1ccco1", "unit_text": "nM", "XC50": 698}
{"compound": "CCN(CC)CCOc1ccc(NC(=O)c2oc3ccccc3c2C=Cc2ccccc2)cc1", "unit_text": "nM", "XC50": 223}

====

- System: Plasmodium falciparum
- protocol_text: GSK_TCMDC: Inhibition of Plasmodium falciparum 3D7 in whole erythrocytes, using parasite LDH activity as an index of growth.
- Type: functional, organism-based
# Lookup of reported XC50 keyed by entry

{"compound": "COc1ccc(C=CC(=O)NC2CCC(CN3CCC(c4c[nH]c5ccccc45)CC3)CC2)cc1 (stereo not given)", "unit_text": "µM", "XC50": 0.807}
{"compound": "O=C(C=Cc1ccccc1Br)NC1CCC(CN2CCC(c3c[nH]c4ccccc34)CC2)CC1 (stereo not given)", "unit_text": "µM", "XC50": 0.687}
{"compound": "O=C(Nc1ccc(Cn2ncc(N3CCCNCC3)c(Cl)c2=O)cc1)Nc1ccc(-c2ccccc2)cc1", "unit_text": "µM", "XC50": 0.815}
{"compound": "COC(=O)c1ccc(CC(C)NCC(O)c2cccc(C(F)(F)F)c2)cc1 (stereo not given)", "unit_text": "µM", "XC50": 0.765}
{"compound": "O=C(/C=C/c1cccc(Cl)c1)NC1CCC(CN2CCC(c3c[nH]c4ccccc34)CC2)CC1 (stereo not given)", "unit_text": "µM", "XC50": 0.721}

====

# Lookup of reported XC50 keyed by entry
- Test system: Plasmodium falciparum
- protocol_text: GSK_TCMDC: Inhibition of Plasmodium falciparum 3D7 in whole erythrocytes, using parasite LDH activity as an index of growth.
- Type: functional, organism-based
- condition_description: Plasmodium falciparum, 3D7
measurement_name: XC50 (nM)

{"compound": "CCN(CC)CCN(Cc1ccc(-c2ccc(C(F)(F)F)cc2)cc1)C(=O)Cn1c(/C=C/c2ccco2)nc(=O)c2ccccc21", "measurement_name": "XC50", "recorded_value": 870}
{"compound": "COc1cc(/C=C/C(=O)NC2CCC(N3CCC(c4ccccc4C)CC3)CC2)cc(OC)c1 (stereo not drawn)", "measurement_name": "XC50", "recorded_value": 979}
{"compound": "N#Cc1ccc2c(c1)CCN(CCC1CCC(NC(=O)/C=C/c3ccc4ccccc4c3)CC1)CC2 (stereo not drawn)", "measurement_name": "XC50", "recorded_value": 724}
{"compound": "Cc1ccc(C)c2sc(N3CCN(C(=O)c4ccc([N+](=O)[O-])o4)CC3)nc12", "measurement_name": "XC50", "recorded_value": 819}
{"compound": "CCCCCC(C)C(C)c1cc(O)c2c(c1)OC(C)(C)CC2(O)c1ccccn1 (stereo not drawn)", "measurement_name": "XC50", "recorded_value": 741}
{"compound": "Cc1cc(N[C@@H](CC(C)C)C(=O)NCCOc2ccccc2)nc(NCCOc2ccccc2)n1", "measurement_name": "XC50", "recorded_value": 1490}
{"compound": "COc1ccc(C(=O)CCC(=O)N(Cc2ccc(-c3ccc(CNCCc4ccc(S(C)(=O)=O)cc4)cn3)cc2)Cc2ccc3c(c2)OCO3)cc1F", "measurement_name": "XC50", "recorded_value": 943}
{"compound": "CCC1CN2CCc3c([nH]c4ccccc34)C2CC1CC1=NCCc2c1[nH]c1ccc(OC)cc21 (stereo not drawn)", "measurement_name": "XC50", "recorded_value": 641}

====

- Tested on: Plasmodium falciparum
- protocol_text: GSK_TCMDC: Inhibition of Plasmodium falciparum 3D7 in whole erythrocytes, using parasite LDH activity as an index of growth.
- Type: functional, organism-based
- condition_description: Plasmodium falciparum, 3D7

{"compound": "CCN(CC)/C(=N\\CCCCCC/N=C(\\NC(=N)c1ccc(Cl)cc1)N(CC)CC)NC(=N)c1ccc(Cl)cc1", "test_target": "Plasmodium falciparum", "XC50 / µM": 0.381}
{"compound": "CCOC(=O)CCCc1cc(NC2CCN(C)CC2)nc(Nc2ccc(OC)cc2)n1", "test_target": "Plasmodium falciparum", "XC50 / µM": 0.704}
{"compound": "O=C(NCCCCCN1CCC(c2c[nH]c3ccccc23)CC1)Nc1cccc(C(F)(F)F)c1", "test_target": "Plasmodium falciparum", "XC50 / µM": 1}
{"compound": "Cc1cccc(Cl)c1S(=O)(=O)N1CCCCC(c2ccc(C(F)(F)F)cc2)=N1", "test_target": "Plasmodium falciparum", "XC50 / µM": 0.216}
{"compound": "O=C(Nc1ccc2c(c1)CCNCC2)Nc1ccc2ccccc2c1", "test_target": "Plasmodium falciparum", "XC50 / µM": 0.622}
{"compound": "COc1ccc(CCNCCCCNCCc2ccc(OC)c3ccccc23)c2ccccc12", "test_target": "Plasmodium falciparum", "XC50 / µM": 0.453}
{"compound": "CC(CN1CCN(C)CC1)C(=O)Nc1ccc(-c2cccc(-c3nc4cc(F)ccc4[nH]3)c2)cc1 (centres undefined)", "test_target": "Plasmodium falciparum", "XC50 / µM": 0.522}
{"compound": "CNCCCN(C)C(=O)Oc1c(Br)c(C)nc(C)c1-c1ccc(Oc2ccc(OC(F)(F)F)cc2)cc1", "test_target": "Plasmodium falciparum", "XC50 / µM": 0.386}
{"compound": "Cc1ccccc1CCNC(=O)c1ccc(N2CCN(c3ccncc3)CC2)nc1", "test_target": "Plasmodium falciparum", "XC50 / µM": 1.39}

====

- System: Plasmodium falciparum
- protocol_text: GSK_TCMDC: Inhibition of Plasmodium falciparum 3D7 in whole erythrocytes, using parasite LDH activity as an index of growth.
- Format: functional, organism-based
- condition_description: Plasmodium falciparum, 3D7
# Lookup of reported XC50 keyed by entry

{"compound": "O=C(/C=C/c1ccc(Cl)c(Cl)c1)NCCCCN1CCC(c2c[nH]c3ccccc23)CC1", "XC50": "859 nM"}
{"compound": "CCN(CC)CCN(Cc1ccc(-c2ccc(C(F)(F)F)cc2)cc1)C(=O)Cn1c(CCc2cccc(F)c2F)nc(=O)c2ccc(F)cc21", "XC50": "360 nM"}
{"compound": "CCCCCCN1CCC(NCc2ccc(OCCN3CCCC3)cc2)CC1", "XC50": "719 nM"}
{"compound": "CC(C)C[C@H](NC(=O)c1ccc(OCCN2CCOCC2)cc1)C(=O)N[C@H](/C=N/NC(=O)OC(C)(C)C)CCc1ccccc1", "XC50": "162 nM"}
{"compound": "OCCN1CCN(C2Cc3ccc(F)cc3Sc3ccc(Cl)cc32)CC1 (centres undefined)", "XC50": "876 nM"}
{"compound": "COc1cc2nc(Nc3ccc(Oc4ccccc4)cc3)nc(Nc3ccc(Oc4ccccc4)cc3)c2cc1OC", "XC50": "934 nM"}
{"compound": "O=C(NCCCCN1CCC(c2ccc3c(c2OCCCO)CCCC3)CC1)c1ccc(-c2ccc(C(F)(F)F)cc2)cc1", "XC50": "718 nM"}
{"compound": "COc1ccc(CN2CCN(Cc3cc(Cl)ccc3O)CC2CCO)c(C)c1C (centres undefined)", "XC50": "1490 nM"}
{"compound": "Nc1nc(N)c2nc(C3CC=CCC3)c(N)nc2n1 (centres undefined)", "XC50": "162 nM"}

====

- System: Plasmodium falciparum
- protocol_text: GSK_TCMDC: Inhibition of Plasmodium falciparum 3D7 in whole erythrocytes, using parasite LDH activity as an index of growth.
- Format: functional, organism-based
- condition_description: Plasmodium falciparum, 3D7

{"compound": "CCOc1ccccc1CCNC(C)Cc1ccc(C(=O)Nc2ccc(CC(C)NCCc3cccc(Cl)c3)cc2)cc1 (configuration not stated)", "XC50": "539 nM"}
{"compound": "Cc1cc(N[C@@H](CC(C)C)C(=O)NCc2cccc(F)c2)nc(NCCc2ccccc2)n1", "XC50": "1080 nM"}
{"compound": "C=CCn1c(C)cc(C(=O)COc2ccc(S(=O)(=O)N3CCOCC3)cc2[N+](=O)[O-])c1C", "XC50": "1110 nM"}
{"compound": "CC1(C)NC(N)=NC(=N)N1OCCCOc1ccc(N)cc1", "XC50": "7.04 nM"}
{"compound": "O=C(/C=C/c1ccc(Cl)c(Cl)c1)NCCCCCN1CCCN(C(=O)Nc2cc(F)cc(F)c2)CC1", "XC50": "768 nM"}
{"compound": "CN1CCC(NCc2cccc(-c3ccc(S(=O)(=O)NCCc4ccccn4)cc3)c2)CC1", "XC50": "827 nM"}
{"compound": "Cc1noc(C)c1-c1ccc2c(Nc3ccccc3C(C)(C)C)c(C(=O)NCc3ccc4c(c3)OCO4)cnc2c1", "XC50": "912 nM"}
{"compound": "CCCCCCCn1c(=O)c(C(=O)Nc2c(C)cccc2C)c(O)c2ccccc21", "XC50": "910 nM"}
{"compound": "CSC1=NC(=Nc2ccccc2C)C2(CCC(C(C)(C)C)CC2)N1c1ccccc1Cl (configuration not stated)", "XC50": "800 nM"}
{"compound": "CC[C@H]1CN2CC[C@@H]1C[C@H]2[C@H](O)c1cc(N2CCC(C(N)=O)CC2)nc2ccc(OC)cc12", "XC50": "773 nM"}
{"compound": "CC1(C)NC(N)=NC(=N)N1OCc1cc(Cl)c(Cl)cc1CON1C(=N)N=C(N)NC1(C)C", "XC50": "14.6 nM"}
{"compound": "COc1cc(C2CCN(CCCCNC(=O)c3ccc(NC(=O)c4ccc(Cl)c(Cl)c4)cc3)CC2)ccc1OC(C)C", "XC50": "316 nM"}
{"compound": "CCc1nc(N)nc(N)c1-c1cccc(Cl)c1", "XC50": "193 nM"}
{"compound": "CC1CCCCN1CCCNc1nc(NCc2ccccc2)c2ccccc2n1 (configuration not stated)", "XC50": "953 nM"}
{"compound": "COc1ccc(NC(=O)CSc2nc(-c3ccccc3Cl)ns2)cc1", "XC50": "1040 nM"}
{"compound": "CCCCNCc1ccc(-c2nc(CN(C(=O)Nc3cc([N+](=O)[O-])ccc3F)C3Cc4ccccc4C3)cs2)cc1", "XC50": "1100 nM"}
{"compound": "CN1CCN(C(C(=O)NCc2cc(Cl)cc(Cl)c2)c2ccc(NC(=O)Nc3ccccc3)cc2)CC1 (configuration not stated)", "XC50": "692 nM"}
{"compound": "COc1ccccc1-c1cccc2c(NC(=O)Nc3ccc4nccc(N5CCN(C)CC5)c4c3)ccnc12", "XC50": "1000 nM"}
{"compound": "O=C(/C=C/c1ccc(Cl)c(Cl)c1)NCCCCCN1CCC(NC(=O)Nc2cccc(Cl)c2F)CC1", "XC50": "378 nM"}
{"compound": "CCN1CCc2nc3ccccc3c(C(=O)Nc3ccc(C#N)cc3)c2C1", "XC50": "780 nM"}
{"compound": "N#Cc1ccc2[nH]cc(CN3CCC4(CC3)CN(CCNCc3ccccc3)C(=O)CO4)c2c1", "XC50": "758 nM"}
{"compound": "COc1ccc(NC(=O)Nc2ccc(Nc3nc(C)cc(N(C)C)n3)cc2)cc1", "XC50": "454 nM"}
{"compound": "CCN(CCCN1CCCCC1)c1cc(C)nc(Nc2ccc(C)cc2C)n1", "XC50": "351 nM"}
{"compound": "O=C(Nc1ccc(-n2ccc(C(F)(F)F)n2)cc1)c1cccs1", "XC50": "1070 nM"}
{"compound": "CCCC(=O)NC(NC(=S)Nc1ccc([N+](=O)[O-])cc1)C(Cl)(Cl)Cl (configuration not stated)", "XC50": "1030 nM"}
{"compound": "O=C(c1cc(-c2cccs2)n[nH]1)N1CCN(S(=O)(=O)c2ccc(Cl)cc2)CC1", "XC50": "292 nM"}
{"compound": "Oc1ccc(Cc2ccccc2)cc1CNC1CCCCC1", "XC50": "188 nM"}
{"compound": "COc1ccc(OC)c(C=CC(=O)NC2CCC(CN3CCC(c4c[nH]c5ccccc45)CC3)CC2)c1 (configuration not stated)", "XC50": "653 nM"}
{"compound": "CCN(CC)CCN(CCN(CC)CC)c1ccc2c(c1)Sc1c(Cl)ccc(Cl)c1S2", "XC50": "876 nM"}
{"compound": "Cc1c(S(=O)(=O)Nc2ccc3nccc(N4CCN[C@H](C)C4)c3c2)sc2ccc(Cl)cc12", "XC50": "842 nM"}
{"compound": "COc1ccccc1NC(=O)Nc1ccc(-c2ccc(-c3nc4cc(C(F)(F)F)ccc4[nH]3)cc2)cc1", "XC50": "544 nM"}
{"compound": "CN(Cc1ccc(NC(=O)CCC2CCN(C(=O)/C=C/c3ccc(Cl)c(Cl)c3)CC2)cc1)C1CCOCC1", "XC50": "1730 nM"}
{"compound": "Cc1c(C)c2c(c(C)c1O)CC[C@](C)(C(=O)N1CCC(CN3CCC(c4c[nH]c5ccccc45)CC3)CC1)O2", "XC50": "718 nM"}
{"compound": "CS(=O)(=O)c1ccc(CNCc2ccc(-c3cccc(-c4nc5cc(F)ccc5[nH]4)c3)cc2)cc1", "XC50": "315 nM"}
{"compound": "CC[C@H]1CN2CC[C@@H]1C[C@H]2[C@H](O)c1cc(N2CCC(O)CC2)nc2ccc(OC)cc12", "XC50": "166 nM"}
{"compound": "CCC[C@@H]([C@@H](CC(C)C)C(=O)N[C@@H](CCCNc1nccc(C(F)(F)F)n1)C(=O)Nc1nccs1)N(O)C=O", "XC50": "373 nM"}
{"compound": "COc1ccc2c(N/N=C/c3cccc([N+](=O)[O-])c3)ccnc2c1", "XC50": "846 nM"}
